assay: reversal of MRP1-mediated doxorubicin resistance, pilot screen, H69AR cells, doxorubicin co-treatment (AID 601); details: H69AR cells + 2 uM doxorubicin, CellTiter-Glo, 72 h; at 10 µM; hits give high values
The source made the active and inactive calls.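 The calls were made as follows: active = viability loss from added drug above about 55%, and viability with drug at most 40%, in both replicates (limit read from the data, passing the limit was not always enough); inconclusive = both conditions met in only one replicate; inactive = neither replicate meets both conditions.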
measurement.label: differential viability (reversal)

>  <compound>
O=C1CC(N2CCN(C3CCc4ccccc4C3)CC2)C(=O)N1c1ccccc1 (stereo unspecified)

>  <measurement.label>
differential viability (reversal)

>  <result>
1.58% (inactive)

$$$$
>  <compound>
O=C(COC(=O)c1ccccc1O)Nc1ccc(OC(F)F)cc1

>  <measurement.label>
differential viability (reversal)

>  <result>
2.67% (inactive)

$$$$
>  <compound>
C=CC(O)(C#CCN(CC)CC)c1ccccc1 (stereo unspecified)

>  <measurement.label>
differential viability (reversal)

>  <result>
10.1% (inactive)

$$$$
>  <compound>
O=C(O)CC1NC(=O)N(c2ccccc2)C1=O (stereo unspecified)

>  <measurement.label>
differential viability (reversal)

>  <result>
7.85% (inactive)

$$$$
>  <compound>
O=c1cc(CN2CCN(c3ccc(F)cc3)CC2)nc2sccn12

>  <measurement.label>
differential viability (reversal)

>  <result>
-4.83% (inactive)

$$$$
>  <compound>
Cc1ccnc(NC(=O)CCC(=O)N(CC(=O)NC2CCCCC2)c2cccc(C)c2C)c1

>  <measurement.label>
differential viability (reversal)

>  <result>
-7.79% (inactive)

$$$$
>  <compound>
Cc1ccccc1CSCC(=O)c1c(N)n(C)c(=O)n(C)c1=O

>  <measurement.label>
differential viability (reversal)

>  <result>
-2.12% (inactive)

$$$$
>  <compound>
Cn1c(=O)oc2cc(S(=O)(=O)NCCC(=O)N3CCc4ccccc4C3)ccc21

>  <measurement.label>
differential viability (reversal)

>  <result>
7.68% (inactive)

$$$$
>  <compound>
COc1ccccc1C(=O)Nc1ccc(S(=O)(=O)N2CCCC2)cc1

>  <measurement.label>
differential viability (reversal)

>  <result>
16.2% (inactive)

$$$$
>  <compound>
COc1cc(C(=O)Nc2cccc(-c3nc4cc(C)ccc4o3)c2)cc(OC)c1OC

>  <measurement.label>
differential viability (reversal)

>  <result>
4.43% (inactive)

$$$$
>  <compound>
CCOC(=O)C1CCCN(CCCc2ccccc2)C1 (stereo unspecified)

>  <measurement.label>
differential viability (reversal)

>  <result>
3.21% (inactive)

$$$$
